Here, each record is paired with measured IC50 of pERK inhibition (MCF7 cells stimulated with rhNRG1-β1, MSD) data.
Target: human Her3 receptor on cells (T47D, MCF7) (human, UniProt P21860 20-1342)
Sequence (P21860 20-1342 limits assumed, stated change not applied): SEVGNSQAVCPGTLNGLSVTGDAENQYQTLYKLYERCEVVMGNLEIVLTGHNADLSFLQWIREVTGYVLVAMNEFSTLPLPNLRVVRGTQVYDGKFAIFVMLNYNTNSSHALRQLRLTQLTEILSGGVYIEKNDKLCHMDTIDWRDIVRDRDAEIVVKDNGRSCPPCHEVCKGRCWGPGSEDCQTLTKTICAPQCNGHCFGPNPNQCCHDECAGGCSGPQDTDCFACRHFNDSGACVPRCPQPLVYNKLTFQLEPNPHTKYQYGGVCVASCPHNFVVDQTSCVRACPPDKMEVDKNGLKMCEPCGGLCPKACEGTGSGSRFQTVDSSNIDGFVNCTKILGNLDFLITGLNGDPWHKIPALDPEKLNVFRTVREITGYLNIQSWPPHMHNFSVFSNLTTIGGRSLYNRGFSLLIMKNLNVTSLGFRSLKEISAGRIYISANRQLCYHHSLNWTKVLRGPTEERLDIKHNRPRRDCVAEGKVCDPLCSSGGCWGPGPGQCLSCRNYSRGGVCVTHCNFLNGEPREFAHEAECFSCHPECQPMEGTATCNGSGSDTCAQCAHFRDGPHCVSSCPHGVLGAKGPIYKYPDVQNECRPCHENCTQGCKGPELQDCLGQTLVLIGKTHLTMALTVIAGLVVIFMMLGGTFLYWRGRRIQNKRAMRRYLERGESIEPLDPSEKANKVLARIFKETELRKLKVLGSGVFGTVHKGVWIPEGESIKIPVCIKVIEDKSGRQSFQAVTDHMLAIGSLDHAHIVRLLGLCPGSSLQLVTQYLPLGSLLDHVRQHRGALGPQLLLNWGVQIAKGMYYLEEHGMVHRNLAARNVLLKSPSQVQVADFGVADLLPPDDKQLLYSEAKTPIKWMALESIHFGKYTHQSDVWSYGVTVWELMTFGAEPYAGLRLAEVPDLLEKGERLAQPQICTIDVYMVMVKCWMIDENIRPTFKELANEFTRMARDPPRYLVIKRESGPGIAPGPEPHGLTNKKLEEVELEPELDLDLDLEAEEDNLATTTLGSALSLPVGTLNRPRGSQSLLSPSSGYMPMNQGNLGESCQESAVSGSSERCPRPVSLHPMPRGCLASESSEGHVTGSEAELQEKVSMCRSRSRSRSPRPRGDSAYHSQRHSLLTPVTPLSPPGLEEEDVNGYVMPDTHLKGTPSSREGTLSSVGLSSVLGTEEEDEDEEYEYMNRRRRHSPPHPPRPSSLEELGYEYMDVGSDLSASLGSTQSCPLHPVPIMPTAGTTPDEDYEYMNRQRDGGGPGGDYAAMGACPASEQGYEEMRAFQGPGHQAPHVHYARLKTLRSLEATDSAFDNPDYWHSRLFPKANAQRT
Assay: cell-based or functional assay
Numeric only. Scale: nM

Task item: Name the reported IC50 of pERK inhibition (MCF7 cells stimulated with rhNRG1-β1, MSD) value associated with the binder 588F42 (antibody, V domains shown, Purified mouse IgG from a hybridoma; also called 588F42-HC; 588F42-LC) VH: EVQLQQSGPELVKPGASVKMSCKASGYTFTSYVMHWVKQKPGQGLEWLGYINPYNDGTKYNEKFKGKATLTSDKSSSTAYMELISLTSEDSAVYYCAREASYGNPFAYWGQGTLVTVSA VL: DIVMTQSPASLSASVGETVTITCRTSENIYSYLAWFQQKQGNSPQLLVYNTKTLAEGVPSRFSGSGSGTQFSLKINSLQPEDFGNYYCQHHYDTPWTFGGGTKLEIK
Reply: 1.8

Task item: Name the reported IC50 of pERK inhibition (MCF7 cells stimulated with rhNRG1-β1, MSD) value associated with the binder 588E10 (antibody, V domains shown, Purified mouse IgG from a hybridoma; also called 588E10-HC; 588E10-LC) VH: EVQLQQSGPKLVGPGESVKISCKGSGYTFTDYGMHWVKQSHAKRLEWIGVITIYDGHTNYNQNFKGKAALTVDKSSNTAYLELARMTSEDSAIYYCARGDYDLFWYLDVWGAGTTLTVSS VL: DVVMTQTPLSLTVSLGDQASISCRSSQNIKHSDGNTYLEWYLQKPGQSPKLLIYKVSNRFSGVPDRFSGSGSGTDFTLKISRVEAEDLGVYFCFQGSHVPLTFGAGTKLELKR
Reply: 1.72

Task item: Name the reported IC50 of pERK inhibition (MCF7 cells stimulated with rhNRG1-β1, MSD) value associated with the binder 588E22 (antibody, V domains shown, Purified mouse IgG from a hybridoma; also called 588E22-HC; 588E22-LC) VH: DVQLQESGPELVGPGESVKISCKGSGYTFTDYGMHWVKQSHAKRLEWIGVITIYDGHTNYNQNFKGKAALTVDKSSNTAYPELARMTSEDSAIYYCARGDYDLFWYLDVWGAGTTVTVSS VL: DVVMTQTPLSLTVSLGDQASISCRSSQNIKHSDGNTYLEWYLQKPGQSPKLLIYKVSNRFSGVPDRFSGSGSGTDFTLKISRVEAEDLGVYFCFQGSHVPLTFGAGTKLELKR
Reply: 1.44

Task item: Name the reported IC50 of pERK inhibition (MCF7 cells stimulated with rhNRG1-β1, MSD) value associated with the binder 588F41 (antibody, V domains shown, Purified mouse IgG from a hybridoma; also called 588F41-HC; 588F41-LC) VH: EVQLQQSGPELVKPGASVKMSCKASGYTFTSYVMHWVKQKPGQGLEWLGYINPYNDGTKYNEKFKGMATLTSDKSSSTAYMELISLTSEDSAVYYCAREASYGNPFAYWGQGTLVTVSA VL: DIVMTQSPASLSASVGETVTITCRTSENIYSYLAWFQQKQGNSPQLLVYNTKTLAEGVPSRFSGSGSGTQFSLKINSLQPEDFGNYYCQHHYDTPWTFGGGTKLEIKR
Reply: 4.91

Task item: Name the reported IC50 of pERK inhibition (MCF7 cells stimulated with rhNRG1-β1, MSD) value associated with the binder PO-1C9-C4 (antibody, V domains shown, Purified mouse IgG from a hybridoma; also called PO-1C9-C4-HC; PO-1C9-C4-LC) VH: QVQLQQPGSELVRPGASVKLSCKASGYTFTIFWIHWVKQRPGQGLEWIGNIYPGSGGTNYDEKFKSKATLTVDTFSSTAYMQLSSLTSEDSAVYYCTRWGTGKDYWGQGTTLTVSS VL: DIVLTQSPAIMSASPGEKVTMTCRARSSVSSSYLHWYQQKPGSSPKLWIYSTSNLALGVPARFSGSGSGTSYSLTISSVEAEDAATYYCQQYDSSPFTFGTGTKLEIKR
Reply: 4.62

Task item: Name the reported IC50 of pERK inhibition (MCF7 cells stimulated with rhNRG1-β1, MSD) value associated with the binder PO-1G2-B6 (antibody, V domains shown, Purified mouse IgG from a hybridoma; also called PO-1G2-B6-HC; PO-1G2-B6-LC) VH: EVQLQQSGPELVKPGASVKISCKASGYSFTGYHIHWMKQSHVESLEWIGRINPYSGVTDYNQNFKDKANLTVDQSSSTAYMELHSLTSEDSAFYYCARTDYYGPWFAYWGQGTLVTVSA VL: DIQMTQSPLSLPVSLGDQASISCRSSPSLVHSNGNTYLHWYLQKPGQSPKLLIYTVSNRFSGVPDRFSGSGSGTDFTLKINRVEAEDLGVYFCSQTTHVPWTFGGGTKLEIKR
Reply: 290

Task item: Name the reported IC50 of pERK inhibition (MCF7 cells stimulated with rhNRG1-β1, MSD) value associated with the binder 588E14 (antibody, V domains shown, Purified mouse IgG from a hybridoma; also called 588E14-HC; 588E14-LC) VH: EVQLQQSGPELVGPGESVKISCKGSGYAFTDYGMHWVKQSHAKRLEWIGVITIYDGHTNYNQNFKGKAALTVDKSSNTAYLELARMTSEDSAIYYCARGDYDLFWYLDVWGAGTSVTVSS VL: DIVMTQTPLSLTVSLGDQASISCRSSQNIKHSDGNTYLEWYLQKPGQSPKLLIYKVSNRFSGVPDRFSGSGSGTDFTLKISRVEAEDLGVYFCFQGSHVPLTFGAGTKLELKR
Reply: 1.82

Cited source for all entries: patent US20120195831A1
